Quick reference for EC50 in HT-29 cells, PD-L1 among some binders
- test-target: T1, IFN-γ receptor (IFNGR; IFNGR1 and IFNGR2) on human cells (human, UniProt P15260 18-489; P38484 22-337)
- T1 sequence (looked up) 1: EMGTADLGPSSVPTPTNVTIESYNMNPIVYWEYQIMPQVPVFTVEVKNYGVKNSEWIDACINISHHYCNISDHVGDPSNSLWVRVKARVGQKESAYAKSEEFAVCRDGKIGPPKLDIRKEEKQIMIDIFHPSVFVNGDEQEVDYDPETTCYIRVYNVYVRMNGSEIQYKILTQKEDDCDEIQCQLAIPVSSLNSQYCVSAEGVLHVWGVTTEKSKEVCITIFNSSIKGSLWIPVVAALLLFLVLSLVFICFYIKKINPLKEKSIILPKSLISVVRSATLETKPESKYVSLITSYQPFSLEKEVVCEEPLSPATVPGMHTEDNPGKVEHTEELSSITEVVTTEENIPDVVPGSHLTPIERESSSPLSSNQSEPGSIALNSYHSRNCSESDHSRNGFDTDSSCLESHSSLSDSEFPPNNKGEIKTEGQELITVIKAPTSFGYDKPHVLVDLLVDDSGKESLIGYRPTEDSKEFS
- T1 sequence (looked up) 2: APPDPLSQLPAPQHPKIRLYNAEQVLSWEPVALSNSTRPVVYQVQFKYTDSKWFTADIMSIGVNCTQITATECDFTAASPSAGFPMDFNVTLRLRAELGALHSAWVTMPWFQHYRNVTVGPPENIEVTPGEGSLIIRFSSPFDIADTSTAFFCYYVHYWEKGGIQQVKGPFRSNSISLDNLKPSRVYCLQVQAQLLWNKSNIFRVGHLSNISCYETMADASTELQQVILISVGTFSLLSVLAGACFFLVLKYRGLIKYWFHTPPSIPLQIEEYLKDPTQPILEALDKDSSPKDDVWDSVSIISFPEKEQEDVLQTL
- assay-info: cell-based or functional assay
Output spec: scalar in ng/mL, unitless text.

Known EC50 in HT-29 cells, PD-L1 results, listed for orientation:
rhIFN-γ-1b (wild-type recombinant human interferon-γ-1b) (ligand, also called wt (rhIFN-γ-1b); WT IFN-γ-1b (Actimmune)) MQDPYVKEAENLKKYFNAGHSDVADNGTLFLGILKNWKEESDRKIMQSQIVSFYFKLFKNFKDDQSIQKSVETIKEDMNVKFFNSNKKKRDDFEKLTNYSVTDLNVQRKAIHELIQVMAELSPAAKTGKRKRSQMLFRGR | 0.69
Compound 3, mono-mPEG2-ru-MAL-20K-rhIFN-γ-1b-M135C (ring closed) (ligand, Cys135 thioether-linked to branched mPEG2-maleimide of about 20,000 daltons (mPEG2-MAL-20K), succinimide ring closed, also called mPEG2-MAL-20K-M135C-IFN-γ; M135C 20K branched (RC)) MQDPYVKEAENLKKYFNAGHSDVADNGTLFLGILKNWKEESDRKIMQSQIVSFYFKLFKNFKDDQSIQKSVETIKEDMNVKFFNSNKKKRDDFEKLTNYSVTDLNVQRKAIHELIQVMAELSPAAKTGKRKRSQCLFRGR | 2.2
Compound 1, mono-mPEG-MAL-10K-rhIFN-γ-1b-M135C (ligand, Cys135 thioether-linked to linear mPEG-maleimide of about 10,000 daltons (mPEG-MAL-10K), succinimide ring closed, also called mPEG-MAL-10K-M135C-IFN-γ; M135C 10K linear) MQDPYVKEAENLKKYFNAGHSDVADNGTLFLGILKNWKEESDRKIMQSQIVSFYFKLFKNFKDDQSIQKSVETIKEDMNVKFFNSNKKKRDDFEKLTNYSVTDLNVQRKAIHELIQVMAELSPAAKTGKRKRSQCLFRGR | 1.1

Recorded result, Compound 2, mono-mPEG-MAL-20K-rhIFN-γ-1b-M135C (ligand, Cys135 thioether-linked to linear mPEG-maleimide of about 20,000 daltons (mPEG-MAL-20K), succinimide ring closed, also called mPEG-MAL-20K-M135C-IFN-γ; M135C 20K linear) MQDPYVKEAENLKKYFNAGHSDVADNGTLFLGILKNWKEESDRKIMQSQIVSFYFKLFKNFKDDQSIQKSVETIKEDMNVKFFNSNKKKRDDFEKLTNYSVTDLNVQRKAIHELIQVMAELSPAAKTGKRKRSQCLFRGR , EC50 in HT-29 cells, PD-L1: 1.2
